System: SF-539
Protocol Description: NCI tumour cell line growth inhibition, 48 h
Activity calls are given as the source filed them. No stated cut-off is given here; in the data, active = GI50 up to about 1.1 µM and inactive = higher.
Labels: active, inactive

1. Cc1cc(Br)cc(C)c1NC(=O)C(=O)Nn1c(S)nc2ccccc2c1=O; inactive
2. CC1CNC(c2ccc(-c3nc(-c4ccc(C5=NC(C)CN5)cc4)nc(N(C)C)n3)cc2)=N1 (stereo not given); active
3. Oc1cc(-c2ccccc2)c2ccccc2n1; inactive
4. CC1(C)Cc2c(c3ccccc3c3nc4c(nc23)c2c(c3ccccc34)OC(C)(C)C2)O1; inactive
5. OC12c3ccccc3C1CCCCCC21OCCCO1 (stereo not given); inactive
6. C[C@]12C=CC(=O)C=C1CC[C@@H]1[C@@H]2C(=O)C[C@@]2(C)[C@H]1CC[C@]2(O)C(=O)CO [PREDNISONE]; inactive
7. C=CCOc1ccccc1C1(O)c2ccccc2C2=NCCCN21 (stereo not given); inactive
8. CCOC(=O)C(Cc1c[nH]c2cc([N+](=O)[O-])ccc12)NS(=O)(=O)c1ccc2ccccc2c1 (stereo not given); inactive
9. COC(=O)c1ccccc1OCc1cc(=O)oc2ccc(C)cc12; inactive
10. CC1(C)CC(=O)C2=C(C1)C(c1ccccc1Cl)C1C(=O)CC(C)(C)CC1(O)O2 (stereo not given); inactive

* * *

Test system: LOX IMVI
Protocol Description: NCI tumour cell line growth inhibition, 48 h
Active and inactive are the calls of the source. Rule as the data show it: active = GI50 up to about 1.1 µM and inactive = higher.
Outcome codes: active, inactive

1) O=C(NCCNCCO)N/N=C/c1ccccc1; inactive
2) O=C1OC(c2cccc(C(F)(F)F)c2)c2ccc3ccccc3c21 (stereo not drawn); inactive
3) CCOC(=O)NC(=O)c1cn(CCOC(=O)CCCCCCCCC(=O)OCCn2cc(C(=O)NC(=O)OCC)c(=O)[nH]c2=O)c(=O)[nH]c1=O; inactive
4) CO/C(=N\N=C\c1ccc(OC)cc1OC)c1ccncc1; inactive
5) CC1OC(OC2C(OC(=O)[C@]34CCC(C)(C)C[C@H]3C3=CC[C@@H]5[C@@]6(C)CC[C@H](OC7OC(C(=O)O)C(O)C(O)C7O)C(C)(C)[C@@H]6CC[C@@]5(C)[C@]3(C)CC4)OCC(O)C2O)C(O)C(O)C1OC1OCC(O)C(O)C1O (stereo partly drawn); inactive
6) C/C(=N/NC(=S)N(Cc1ccccn1)Cc1ccccn1)c1cnccn1; active
7) Cn1ccc2c(C(=O)c3ccccc3)cccc2c1=O; inactive
8) O=C1[C@@H]2C(c3ccccc3[N+](=O)[O-])=NO[C@@H]2C(=O)N1c1ccc(Cc2ccc(N3C(=O)[C@H]4C(c5ccccc5[N+](=O)[O-])=NO[C@H]4C3=O)cc2)cc1; inactive

* * *

Tested on: OVCAR-8
Protocol Description: NCI tumour cell line growth inhibition, 48 h
Calls of active or inactive are those of the source. No stated cut-off is given here; in the data, active = GI50 up to about 1.1 µM and inactive = higher.
Classes used: TRUE for active, FALSE for inactive

1. Cc1c(C)c2c(c(N)c1C#N)C(=O)N(OS(=O)(=O)c1ccccc1)C2=O; FALSE
2. COc1cccc2c1C(=O)c1c(O)c3c(c(O)c1C2=O)C[C@@](O)(C(C)=O)C[C@@H]3OC1CC(N(Cc2ccccc2)Cc2ccccc2)C(O)C(C)O1 (stereo not given in full); FALSE
3. CC1(C)CC(=O)C2=C(C1)C(c1ccccc1Cl)C1C(=O)CC(C)(C)CC1(O)O2 (stereo not given); FALSE
4. CSc1ccc(NC(=O)Nc2cc(C)ccn2)cc1; FALSE
5. CS/C(=N\Nc1cnc2ccccc2n1)NS(=O)(=O)c1cc(C)c(Cl)cc1Cl; FALSE
6. CCCCc1c2c(nc3c1CCC/C3=C\c1ccccc1)/C(=C/c1ccccc1)CCC2; FALSE
7. CC(Oc1ccc(Cl)cc1Cl)C(=O)NN1C(=O)CSC1c1ccc(Cl)cc1 (stereo not given); FALSE
8. COc1ccc(C(SC2C(O)C(CO)OC2n2ccc(N)nc2=O)(c2ccccc2)c2ccc(OC)cc2)cc1 (stereo not given); FALSE
9. C[C@H]1CC[C@@H]2[C@@H](C)[C@H]3[C@H](C[C@H]4[C@@H]5CC=C6C[C@@H](O)CC[C@]6(C)[C@H]5C[C@H](O)[C@]34C)N2C1; FALSE
10. COC(=O)C1CCc2c1c(=O)n1c([nH]c3ccccc31)c2C#N (stereo not given); FALSE
11. Cc1cc2nc3[nH]nc(N)c3nc2cc1C; FALSE
12. Cc1nc(C)c(N2CCN(Cc3ccccc3)CC2)c(O)n1; FALSE
13. COc1c2c(c(O)c3c4c(c(C)cc13)C1OC3(C(OC)OC5CC(C)(O)C(OC6CC(C)(O)C(O)C(C)O6)C(C)O5)OC1C(OC)(O4)C31CO1)C(=O)C(O)CC2OC1CC(C)(O)C(OC(C)=O)C(C)O1 (stereo not given); TRUE
14. C=Cc1c(C)c(OC)cc2c1Oc1ccc(OC)c(C)c1CC2; FALSE
15. c1ccc2c(c1)SC1Sc3ccccc3[S+]21 (stereo not given); FALSE
16. Cc1nc2ccc(Cl)cc2c(Cl)c1CCCl; FALSE
17. CCSc1n/c(=C\c2ccco2)c2nncn12; FALSE
18. CC(C)(C)[Si](C)(C)OC1CCOC1(O)c1ccccn1 (stereo not given); FALSE
19. Cc1cc(Cl)nc2nc(Cl)c(N)cc12; FALSE
20. Cc1ccc(C)n2c1nc1ccc3ccccc3c12; FALSE
